- experimental-target: T1, GIP Receptor (Homo sapiens, UniProt P48546)
- T1 construct: host or cells: HEK293T
- T1 sequence (P48546 22-466): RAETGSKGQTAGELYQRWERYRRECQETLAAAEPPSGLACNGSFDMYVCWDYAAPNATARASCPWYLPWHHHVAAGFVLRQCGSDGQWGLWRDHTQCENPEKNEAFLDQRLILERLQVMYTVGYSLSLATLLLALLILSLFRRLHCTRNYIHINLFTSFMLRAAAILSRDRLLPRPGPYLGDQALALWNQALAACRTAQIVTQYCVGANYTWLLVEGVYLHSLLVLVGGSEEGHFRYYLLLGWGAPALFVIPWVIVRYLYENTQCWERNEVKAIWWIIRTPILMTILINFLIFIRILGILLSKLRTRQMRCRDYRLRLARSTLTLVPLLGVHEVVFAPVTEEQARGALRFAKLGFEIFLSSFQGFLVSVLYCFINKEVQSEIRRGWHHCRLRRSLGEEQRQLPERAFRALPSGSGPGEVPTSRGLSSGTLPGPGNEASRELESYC
- measurement-protocol: GIP receptor-mediated bioluminescence in HEK293T cells with chimeric promiscuous G protein (FIG. 5, Table II)
- Type: cell-based
- assay-context: signal induced by maximal GIP (1 μM) as percentage of signal induced by Triton X-100 with 1 mM Ca^2+
Assign % GPCR/total to each entry below.
Give bare numbers, in %.

Check out these entries, answers already filled in.
molecule: Mt-clytin K168H: Mitochondrial K168H modified Clytin, SEQ ID NO:14 (protein) MSVLTPLLLRGLTGSARRLPVPRAKIHSLPPEGKLRPNFDNPKWVNRHKFMFNFLDINGDGKITLDEIVSKASDDICAKLGATPEQTKRHQDAVEAFFKKIGMDYGKEVEFPAFVDGWKELANYDLKLWSQNKKSLIRDWGEAVFDIFDKDGSGSISLDEWKAYGRISGICSSDEDAEKTFKHCDLDNSGHLDVDEMTRQHLGFWYTLDPNADGLYGNFVP
% GPCR/total [%]: 14.9

molecule: Cyto-clytin K168D: K168D modified Clytin amino acid sequence, SEQ ID NO:9; cytosolic (protein) MADTASKYAVKLRPNFDNPKWVNRHKFMFNFLDINGDGKITLDEIVSKASDDICAKLGATPEQTKRHQDAVEAFFKKIGMDYGKEVEFPAFVDGWKELANYDLKLWSQNKKSLIRDWGEAVFDIFDKDGSGSISLDEWKAYGRISGICSSDEDAEKTFKHCDLDNSGDLDVDEMTRQHLGFWYTLDPNADGLYGNFVP
% GPCR/total [%]: 55.6

molecule: Mt-clytin K168V: Mitochondrial K168V modified Clytin, SEQ ID NO:26 (protein) MSVLTPLLLRGLTGSARRLPVPRAKIHSLPPEGKLRPNFDNPKWVNRHKFMFNFLDINGDGKITLDEIVSKASDDICAKLGATPEQTKRHQDAVEAFFKKIGMDYGKEVEFPAFVDGWKELANYDLKLWSQNKKSLIRDWGEAVFDIFDKDGSGSISLDEWKAYGRISGICSSDEDAEKTFKHCDLDNSGVLDVDEMTRQHLGFWYTLDPNADGLYGNFVP
% GPCR/total [%]: 18.5

Query molecule follows.
Ask | # lookup: % GPCR/total of Mt-clytin wt: Mitochondrial Wild-type Clytin (mt-Clytin), SEQ ID NO:5, with COX8 mitochondrial leader sequence (protein, listed as Clytia gregaria) MSVLTPLLLRGLTGSARRLPVPRAKIHSLPPEGKLRPNFDNPKWVNRHKFMFNFLDINGDGKITLDEIVSKASDDICAKLGATPEQTKRHQDAVEAFFKKIGMDYGKEVEFPAFVDGWKELANYDLKLWSQNKKSLIRDWGEAVFDIFDKDGSGSISLDEWKAYGRISGICSSDEDAEKTFKHCDLDNSGKLDVDEMTRQHLGFWYTLDPNADGLYGNFVP
Reply | 6.8
